Reported values of growth for individual entries
- Test system: SF-295 CNS
- Test Method Notes: NCI-60 one-dose screen, 48 h (100 = growth as untreated, 0 = no growth, -100 = all killed)
- Measurement Context: 10 µM unless noted
The panel holds about 83,000 compounds, 20% with a hit somewhere; the sample as a whole holds those more often.
Observed Property: growth (%)

Compound	Observed Property	Number
COC(=O)c1nc(-c2ccc(C)cc2)oc1Sc1ccc(C)cc1	growth	114
Cc1ccc(S(=O)(=O)OC[C@@]2(C)CC[C@]3(C)CC[C@]4(C)C(=CC[C@@H]5[C@@]6(C)CCCNC(C)(C)[C@@H]6CC[C@]54C)[C@@H]3C2)cc1	growth	85.6
CCN(c1cc(-c2ccc(CN3CCC(/C=C/S(=O)(=O)c4ccccc4)CC3)cc2)cc(C(=O)NCc2c(C)cc(C)[nH]c2=O)c1C)C1CCOCC1	growth	84.8
COC(=O)/C=C1/SC(N2N=C(c3cccs3)CC2c2ccc(F)cc2)=NC1=O (centres undefined)	growth	91.4
Cc1oc2c(Cc3ccc(NC(=O)c4ccc(Cl)cc4)cc3)ncnc2c1C(=O)NO	growth	95.3
Cn1cc2c(=O)nc3c(-c4nc5ccccc5[nH]4)n[nH]n3c2n1	growth	106
Cc1cc(N2CCCCC2)nc(NCc2cc(Nc3ccnc4cc(Cl)ccc34)ccc2F)n1	growth	-84.5
O=C1c2cc3c(cc2-c2c1c1ccc(Cl)cc1c(=O)n2CCCn1ccnc1)OCO3	growth	-10.1
Cc1ccc2nc3ccccc3c(NCc3ccc(Cl)cc3)c2c1	growth	43.7
CCN(CC)CCOc1ccc(/C(=C(\Cl)c2ccccc2)c2ccccc2)cc1	growth	-23.1
Nc1ncnc2c1C(c1ccc([N+](=O)[O-])cc1)c1sc3c(F)cccc3c1O2 (centres undefined)	growth	106
Clc1nccc2c(-c3csc(-c4c[nH]c5ccc(Br)cc45)n3)c[nH]c12	growth	-10.3
CCCN1C(=O)/C(=c2\sc3n(c2=O)C2C(NN=3)N(CC)C(=O)N2CC)c2ccccc21 (centres undefined)	growth	7.46
Cc1ccccc1SSc1ccccc1C	growth	80.3
COc1cc(Nc2nc3ccccc3cc2C(=O)Nc2ccc(F)c(F)c2)cc(OC)c1OC	growth	14.2
Cc1ccc2c(c1)C(C)Cc1c(ncnc1-n1cnc3cc(C)ccc31)N2C (centres undefined)	growth	2.2
O=C(NCc1ccc(Cn2c(=O)sn(-c3ccc(Cl)cc3)c2=O)cc1)OCc1ccc2c(Cl)cc(Cl)c(O)c2n1	growth	18.2
Nc1nc(CSc2n[nH]c(N)n2)nc(Nc2ccccc2)n1	growth	97.6
Cc1ccc(C(=O)Nc2ccc(CN3CCN(C)CC3)c(C(F)(F)F)c2)cc1C#Cc1cnc(N)cc1C#N	growth	-68.1
